Overview of recorded MIC for various compounds
Test system: Staphylococcus aureus
EXPERIMENT SUMMARY: Antibacterial activity against hospital-associated methicillin-resistant Staphylococcus aureus isolate 56 (494) by broth microdilution assay
Assay type: functional
Quick reminder: number only, in µg/mL, skip the unit.

Recorded MIC, per entry:
| COMPOUND | NUMBER |
| --- | --- |
| CCCCCCCCCCNCCN[C@@]1(C)C[C@H](O[C@H]2[C@H](Oc3c4cc5cc3Oc3ccc(cc3Cl)[C@@H](O)[C@@H](NC(=O)[C@@H](CC(C)C)NC)C(=O)N[C@@H](CC(N)=O)C(=O)N[C@H]5C(=O)N[C@H]3C(=O)N[C@H](C(=O)N[C@H](C(=O)O)c5cc(O)c(CNCP(=O)(O)O)c(O)c5-c5cc3ccc5O)[C@H](O)c3ccc(c(Cl)c3)O4)O[C@H](CO)[C@@H](O)[C@@H]2O)O[C@@H](C)[C@H]1O [TELAVANCIN] | 0.5 |
| O=C(O)c1cn(C2CC2)c2cc(N3CCNCC3)c(F)cc2c1=O [CIPROFLOXACIN] | 0.5 |
| CCCCCCCCCC(=O)N[C@@H](Cc1c[nH]c2ccccc12)C(=O)N[C@H](CC(N)=O)C(=O)N[C@@H](CC(=O)O)C(=O)N[C@@H]1C(=O)NCC(=O)N[C@@H](CCCN)C(=O)N[C@@H](CC(=O)O)C(=O)N[C@H](C)C(=O)N[C@@H](CC(=O)O)C(=O)NCC(=O)N[C@H](CO)C(=O)N[C@@H]([C@H](C)CC(=O)O)C(=O)N[C@@H](CC(=O)c2ccccc2N)C(=O)O[C@@H]1C | 0.5 |
| CN(C)c1cc(NC(=O)CNC(C)(C)C)c(O)c2c1C[C@H]1C[C@H]3[C@H](N(C)C)C(O)=C(C(N)=O)C(=O)[C@@]3(O)C(O)=C1C2=O [TIGECYCLINE] | 0.5 |

Next compound, please.
Query: For the compound CCC[C@@H]1C[C@@H](C(=O)N[C@@H]([C@H]2O[C@H](SC)[C@H](O)[C@@H](O)[C@H]2O)[C@H](C)Cl)N(C)C1 [CLINDAMYCIN] , give its measured MIC value.
Reply: 0.25

###

Test system: Staphylococcus aureus
EXPERIMENT SUMMARY: Antibacterial activity against community-associated methicillin-resistant Staphylococcus aureus isolate 145 by broth microdilution assay
Format: functional
ENDPOINT: MIC (µg/mL)
Quick reminder: number only, in µg/mL, skip the unit.

Query: For the compound CCCCCCCCCCNCCN[C@@]1(C)C[C@H](O[C@H]2[C@H](Oc3c4cc5cc3Oc3ccc(cc3Cl)[C@@H](O)[C@@H](NC(=O)[C@@H](CC(C)C)NC)C(=O)N[C@@H](CC(N)=O)C(=O)N[C@H]5C(=O)N[C@H]3C(=O)N[C@H](C(=O)N[C@H](C(=O)O)c5cc(O)c(CNCP(=O)(O)O)c(O)c5-c5cc3ccc5O)[C@H](O)c3ccc(c(Cl)c3)O4)O[C@H](CO)[C@@H](O)[C@@H]2O)O[C@@H](C)[C@H]1O , give its measured MIC value.
Reply: 0.5

###

System: Staphylococcus aureus
EXPERIMENT SUMMARY: Antibacterial activity against community-associated methicillin-resistant Staphylococcus aureus isolate 156 by broth microdilution assay
Type: functional
Overview of recorded MIC for various compounds
Quick reminder: number only, in µg/mL, skip the unit.

Recorded MIC, per entry:
| ENTRY SMILES | NUMBER |
| --- | --- |
| CN(C)c1cc(NC(=O)CNC(C)(C)C)c(O)c2c1C[C@H]1C[C@H]3[C@H](N(C)C)C(O)=C(C(N)=O)C(=O)[C@@]3(O)C(O)=C1C2=O | 0.125 |
| CCCCCCCCCC(=O)N[C@@H](Cc1c[nH]c2ccccc12)C(=O)N[C@H](CC(N)=O)C(=O)N[C@@H](CC(=O)O)C(=O)N[C@@H]1C(=O)NCC(=O)N[C@@H](CCCN)C(=O)N[C@@H](CC(=O)O)C(=O)N[C@H](C)C(=O)N[C@@H](CC(=O)O)C(=O)NCC(=O)N[C@H](CO)C(=O)N[C@@H]([C@H](C)CC(=O)O)C(=O)N[C@@H](CC(=O)c2ccccc2N)C(=O)O[C@@H]1C | 0.5 |

Next compound, please.
Query: For the compound CCCCCCCCCCNCCN[C@@]1(C)C[C@H](O[C@H]2[C@H](Oc3c4cc5cc3Oc3ccc(cc3Cl)[C@@H](O)[C@@H](NC(=O)[C@@H](CC(C)C)NC)C(=O)N[C@@H](CC(N)=O)C(=O)N[C@H]5C(=O)N[C@H]3C(=O)N[C@H](C(=O)N[C@H](C(=O)O)c5cc(O)c(CNCP(=O)(O)O)c(O)c5-c5cc3ccc5O)[C@H](O)c3ccc(c(Cl)c3)O4)O[C@H](CO)[C@@H](O)[C@@H]2O)O[C@@H](C)[C@H]1O , give its measured MIC value.
Reply: 0.5

###

Test system: Staphylococcus aureus
EXPERIMENT SUMMARY: Antibacterial activity against vancomycin-intermediate Staphylococcus aureus isolate 454 (NRS404) by broth microdilution assay
Type: functional
ENDPOINT: MIC

Query: For the molecule CCC[C@@H]1C[C@@H](C(=O)N[C@@H]([C@H]2O[C@H](SC)[C@H](O)[C@@H](O)[C@H]2O)[C@H](C)Cl)N(C)C1 , give its measured MIC value.
Reply: ≤ 0.5 µg/mL

###

Overview of recorded MIC for various compounds
Tested on: Staphylococcus aureus
EXPERIMENT SUMMARY: Antibacterial activity against vancomycin-intermediate Staphylococcus aureus isolate 435 by broth microdilution assay
Assay type: functional
Quick reminder: number only, in µg/mL, skip the unit.

Recorded MIC, per entry:
| ENTRY SMILES | MIC [µg/mL] |
| --- | --- |
| CCCCCCCCCCNCCN[C@@]1(C)C[C@H](O[C@H]2[C@H](Oc3c4cc5cc3Oc3ccc(cc3Cl)[C@@H](O)[C@@H](NC(=O)[C@@H](CC(C)C)NC)C(=O)N[C@@H](CC(N)=O)C(=O)N[C@H]5C(=O)N[C@H]3C(=O)N[C@H](C(=O)N[C@H](C(=O)O)c5cc(O)c(CNCP(=O)(O)O)c(O)c5-c5cc3ccc5O)[C@H](O)c3ccc(c(Cl)c3)O4)O[C@H](CO)[C@@H](O)[C@@H]2O)O[C@@H](C)[C@H]1O | 1 |
| CN(C)c1cc(NC(=O)CNC(C)(C)C)c(O)c2c1C[C@H]1C[C@H]3[C@H](N(C)C)C(O)=C(C(N)=O)C(=O)[C@@]3(O)C(O)=C1C2=O | 0.25 |

Query: For the compound CCCCCCCCCC(=O)N[C@@H](Cc1c[nH]c2ccccc12)C(=O)N[C@H](CC(N)=O)C(=O)N[C@@H](CC(=O)O)C(=O)N[C@@H]1C(=O)NCC(=O)N[C@@H](CCCN)C(=O)N[C@@H](CC(=O)O)C(=O)N[C@H](C)C(=O)N[C@@H](CC(=O)O)C(=O)NCC(=O)N[C@H](CO)C(=O)N[C@@H]([C@H](C)CC(=O)O)C(=O)N[C@@H](CC(=O)c2ccccc2N)C(=O)O[C@@H]1C , give its measured MIC value.
Reply: 0.5

###

Overview of recorded MIC for various compounds
Test system: Staphylococcus aureus
EXPERIMENT SUMMARY: Antibacterial activity against vancomycin-heteroresistant Staphylococcus aureus isolate 443 by broth microdilution assay
Type: functional
Quick reminder: number only, in µg/mL, skip the unit.

Recorded MIC, per entry:
| COMPOUND | MIC, µg/mL |
| --- | --- |
| CN(C)c1cc(NC(=O)CNC(C)(C)C)c(O)c2c1C[C@H]1C[C@H]3[C@H](N(C)C)C(O)=C(C(N)=O)C(=O)[C@@]3(O)C(O)=C1C2=O [TIGECYCLINE] | 0.25 |
| CCCCCCCCCC(=O)N[C@@H](Cc1c[nH]c2ccccc12)C(=O)N[C@H](CC(N)=O)C(=O)N[C@@H](CC(=O)O)C(=O)N[C@@H]1C(=O)NCC(=O)N[C@@H](CCCN)C(=O)N[C@@H](CC(=O)O)C(=O)N[C@H](C)C(=O)N[C@@H](CC(=O)O)C(=O)NCC(=O)N[C@H](CO)C(=O)N[C@@H]([C@H](C)CC(=O)O)C(=O)N[C@@H](CC(=O)c2ccccc2N)C(=O)O[C@@H]1C | 0.5 |

Query: For the compound CCCCCCCCCCNCCN[C@@]1(C)C[C@H](O[C@H]2[C@H](Oc3c4cc5cc3Oc3ccc(cc3Cl)[C@@H](O)[C@@H](NC(=O)[C@@H](CC(C)C)NC)C(=O)N[C@@H](CC(N)=O)C(=O)N[C@H]5C(=O)N[C@H]3C(=O)N[C@H](C(=O)N[C@H](C(=O)O)c5cc(O)c(CNCP(=O)(O)O)c(O)c5-c5cc3ccc5O)[C@H](O)c3ccc(c(Cl)c3)O4)O[C@H](CO)[C@@H](O)[C@@H]2O)O[C@@H](C)[C@H]1O [TELAVANCIN] , give its measured MIC value.
Reply: 0.5

The values you see were collected from ChEMBL document CHEMBL1687804.
